# TESTED ON: CBP recombinant proteins (Homo sapiens (Human))
# ASSAY NOTES: Competitive HTRF assay for affinity to CBP recombinant protein
# CONDITION NOTES: His-tagged CBP 5 nM, biotin-labeled ligand 50 nM, 1% DMSO
Please respond with reported IC50 for every item in the list.

Solved entries:
{"COMPOUND": "CNC(=O)c1cc2ccccc2c(N2CCCc3cc(C4=CCNCC4)c(C(F)F)cc32)n1 [Example 42]", "TESTED ON": "CBP recombinant proteins (Homo sapiens (Human))", "VALUE": "50 nM"}
{"COMPOUND": "CNC(=O)c1cc2cccnc2c(N2CCCc3cc(-c4cnn(CS(C)(=O)=O)c4)c(C(F)F)cc32)n1 [Example 38]", "TESTED ON": "CBP recombinant proteins (Homo sapiens (Human))", "VALUE": "14 nM"}
{"COMPOUND": "Cn1cc(-c2cc3c(cc2C(F)F)N(c2nc(C(=O)NC4CC4)cc4ccccc24)CCC3)cn1 [Example 9]", "TESTED ON": "CBP recombinant proteins (Homo sapiens (Human))", "VALUE": "> 1000 nM"}
{"COMPOUND": "CNC(=O)c1cc2ccccc2c(N2CCCc3cc(-c4cnn(C)c4)c(Cl)cc32)n1 [Example 57]", "TESTED ON": "CBP recombinant proteins (Homo sapiens (Human))", "VALUE": "36 nM"}
{"COMPOUND": "CNC(=O)c1cc2cccnc2c(N2CCCc3cc(-c4cnn(C)c4)c(C(F)F)cc32)n1 [Example 15]", "TESTED ON": "CBP recombinant proteins (Homo sapiens (Human))", "VALUE": "7.5 nM"}

Answer for every listed entry: what is its IC50? The entries follow.
1. CNC(=O)c1cc2cc(OC)cnc2c(N2CCCc3cc(C4CCN(C(C)=O)CC4)c(C(F)F)cc32)n1 [Example 51]
2. CNC(=O)c1cc2cnccc2c(N2CCCc3cc(C4CCN(C(C)=O)CC4)c(C(F)F)cc32)n1 [Example 48]
3. CNC(=O)c1cc2cc(C3CCCO3)ccc2c(N2CCCc3cc(-c4cnn(C)c4)c(C(F)F)cc32)n1 (centres unmarked) [Example 29]

["22 nM", "13 nM", "16 nM"]

----------
# TESTED ON: CBP recombinant proteins (Homo sapiens (Human))
# ASSAY NOTES: Competitive HTRF assay for affinity to CBP recombinant protein
# CONDITION NOTES: His-tagged CBP 5 nM, biotin-labeled ligand 50 nM, 1% DMSO
Give measured pIC50 for each item. Keep answers brief.
One number for each entry, as −log10 of the molar value.

Worked cases, answers included:
{"COMPOUND": "CNC(=O)c1cc2cc(C3=CCOCC3)ccc2c(N2CCCc3cc(-c4cnn(C)c4)c(C(F)F)cc32)n1 [Example 20]", "EXPERIMENTAL READOUT": "pIC50", "VALUE": 7.74}
{"COMPOUND": "CNC(=O)c1cc2ccccc2c(N2CCOc3cc(-c4cnn(C)c4)ccc32)n1 [Example 60]", "EXPERIMENTAL READOUT": "pIC50", "VALUE": 7.24}
{"COMPOUND": "CNC(=O)c1cc2ccncc2c(N2CCCc3cc(-c4cnn(C)c4)c(C(F)F)cc32)n1 [Example 14]", "EXPERIMENTAL READOUT": "pIC50", "VALUE": 7.82}
{"COMPOUND": "CNC(=O)c1cc2ccccc2c(N2CCC(NC)c3cc(-c4cnn(C)c4)ccc32)n1 (stereo not shown) [Example 40]", "EXPERIMENTAL READOUT": "pIC50", "VALUE": 7.21}
{"COMPOUND": "CNC(=O)c1cc2cccnc2c(N2CCCc3cc(C4CCN(C(C)=O)CC4)c(C(F)F)cc32)n1 [Example 46]", "EXPERIMENTAL READOUT": "pIC50", "VALUE": 8.27}
{"COMPOUND": "CNC(=O)c1cc2cc(Cl)cnc2c(N2CCCc3cc(C4CCN(C(C)=O)CC4)c(C(F)F)cc32)n1 [Example 50]", "EXPERIMENTAL READOUT": "pIC50", "VALUE": 7.27}
{"COMPOUND": "CNC(=O)c1cc2ccccc2c(N2CCCc3cc(-c4cnn(CCO)c4)c(C(F)F)cc32)n1 [Example 35]", "EXPERIMENTAL READOUT": "pIC50", "VALUE": 7.80}
{"COMPOUND": "CNC(=O)Cn1cc(-c2cc3c(cc2C(F)F)N(c2nc(C(=O)NC)cc4ccccc24)CCC3)cn1 [Example 56]", "EXPERIMENTAL READOUT": "pIC50", "VALUE": 7.62}

Go through the list and state pIC50 for each entry.
1. CNC(=O)c1cc2cccnc2c(N2CCCc3cc(C4=CCN(C(C)=O)CC4)c(C(F)F)cc32)n1 [Example 43]
2. CNC(=O)c1cc2ccc(C3=CCOC3)cc2c(N2CCCc3cc(-c4cnn(C)c4)c(C(F)F)cc32)n1 [Example 18]
3. CNC(=O)c1cc2ncccc2c(N2CCCc3cc(-c4cnn(C)c4)c(C(F)F)cc32)n1 [Example 64]
4. CNC(=O)c1cc2ccncc2c(N2CCCc3cc(C4CCN(C(C)=O)CC4)c(C(F)F)cc32)n1 [Example 49]
5. CNC(=O)c1cc2ccccc2c(N2CCCc3cc(-c4cnn(C5CC5)c4)c(C(F)F)cc32)n1 [Example 33]
6. CCn1cc(-c2cc3c(cc2C(F)F)N(c2nc(C(=O)NC)cc4ccccc24)CCC3)cn1 [Example 32]
7. CNC(=O)c1cc2ccoc2c(N2CCCc3cc(-c4cnn(C)c4)c(C(F)F)cc32)n1 [Example 63]
8. CNC(=O)c1cc2cccnc2c(N2CCCc3cc(-c4cnn(C5CNC5)c4)c(C(F)F)cc32)n1 [Example 53]

[8.17, 7.72, 7.85, 7.92, 7.36, 7.44, 6.87, 7.85]

Take each entry in turn and give its pIC50.
1. CNC(=O)c1cc2ccc(C3=CCOCC3)cc2c(N2CCCc3cc(-c4cnn(C)c4)c(C(F)F)cc32)n1 [Example 16]
2. CNC(=O)c1cc2cnccc2c(N2CCCc3cc(-c4cnn(C)c4)c(C(F)F)cc32)n1 [Example 13]
3. CNC(=O)c1cc2ccccc2c(N2CCCc3cc(-c4cnn(C)c4)c(C(F)F)cc32)n1 [Example 2]
4. CNC(=O)c1cc2cccnc2c(-c2ccc3c(c2)c(-c2cnn(C)c2)nn3C)n1 [Example 66]
5. CNC(=O)c1cc2ccccc2c(N2CCCc3cc(-c4cnn(C)c4)ccc32)n1 [Example 1]
6. CNC(=O)c1cc2cccnc2c(N2CCOc3cc(-c4cnn(C)c4)c(C(F)F)cc32)n1 [Example 65]

1: 7.89; 2: 7.68; 3: 7.72; 4: 7.31; 5: 7.14; 6: 7.92

----------
Exercise: state measured pIC50 for each of the compounds provided.
# TESTED ON: CBP recombinant proteins (Homo sapiens (Human), UniProt Q92793)
# Sequence (Q92793 whole entry): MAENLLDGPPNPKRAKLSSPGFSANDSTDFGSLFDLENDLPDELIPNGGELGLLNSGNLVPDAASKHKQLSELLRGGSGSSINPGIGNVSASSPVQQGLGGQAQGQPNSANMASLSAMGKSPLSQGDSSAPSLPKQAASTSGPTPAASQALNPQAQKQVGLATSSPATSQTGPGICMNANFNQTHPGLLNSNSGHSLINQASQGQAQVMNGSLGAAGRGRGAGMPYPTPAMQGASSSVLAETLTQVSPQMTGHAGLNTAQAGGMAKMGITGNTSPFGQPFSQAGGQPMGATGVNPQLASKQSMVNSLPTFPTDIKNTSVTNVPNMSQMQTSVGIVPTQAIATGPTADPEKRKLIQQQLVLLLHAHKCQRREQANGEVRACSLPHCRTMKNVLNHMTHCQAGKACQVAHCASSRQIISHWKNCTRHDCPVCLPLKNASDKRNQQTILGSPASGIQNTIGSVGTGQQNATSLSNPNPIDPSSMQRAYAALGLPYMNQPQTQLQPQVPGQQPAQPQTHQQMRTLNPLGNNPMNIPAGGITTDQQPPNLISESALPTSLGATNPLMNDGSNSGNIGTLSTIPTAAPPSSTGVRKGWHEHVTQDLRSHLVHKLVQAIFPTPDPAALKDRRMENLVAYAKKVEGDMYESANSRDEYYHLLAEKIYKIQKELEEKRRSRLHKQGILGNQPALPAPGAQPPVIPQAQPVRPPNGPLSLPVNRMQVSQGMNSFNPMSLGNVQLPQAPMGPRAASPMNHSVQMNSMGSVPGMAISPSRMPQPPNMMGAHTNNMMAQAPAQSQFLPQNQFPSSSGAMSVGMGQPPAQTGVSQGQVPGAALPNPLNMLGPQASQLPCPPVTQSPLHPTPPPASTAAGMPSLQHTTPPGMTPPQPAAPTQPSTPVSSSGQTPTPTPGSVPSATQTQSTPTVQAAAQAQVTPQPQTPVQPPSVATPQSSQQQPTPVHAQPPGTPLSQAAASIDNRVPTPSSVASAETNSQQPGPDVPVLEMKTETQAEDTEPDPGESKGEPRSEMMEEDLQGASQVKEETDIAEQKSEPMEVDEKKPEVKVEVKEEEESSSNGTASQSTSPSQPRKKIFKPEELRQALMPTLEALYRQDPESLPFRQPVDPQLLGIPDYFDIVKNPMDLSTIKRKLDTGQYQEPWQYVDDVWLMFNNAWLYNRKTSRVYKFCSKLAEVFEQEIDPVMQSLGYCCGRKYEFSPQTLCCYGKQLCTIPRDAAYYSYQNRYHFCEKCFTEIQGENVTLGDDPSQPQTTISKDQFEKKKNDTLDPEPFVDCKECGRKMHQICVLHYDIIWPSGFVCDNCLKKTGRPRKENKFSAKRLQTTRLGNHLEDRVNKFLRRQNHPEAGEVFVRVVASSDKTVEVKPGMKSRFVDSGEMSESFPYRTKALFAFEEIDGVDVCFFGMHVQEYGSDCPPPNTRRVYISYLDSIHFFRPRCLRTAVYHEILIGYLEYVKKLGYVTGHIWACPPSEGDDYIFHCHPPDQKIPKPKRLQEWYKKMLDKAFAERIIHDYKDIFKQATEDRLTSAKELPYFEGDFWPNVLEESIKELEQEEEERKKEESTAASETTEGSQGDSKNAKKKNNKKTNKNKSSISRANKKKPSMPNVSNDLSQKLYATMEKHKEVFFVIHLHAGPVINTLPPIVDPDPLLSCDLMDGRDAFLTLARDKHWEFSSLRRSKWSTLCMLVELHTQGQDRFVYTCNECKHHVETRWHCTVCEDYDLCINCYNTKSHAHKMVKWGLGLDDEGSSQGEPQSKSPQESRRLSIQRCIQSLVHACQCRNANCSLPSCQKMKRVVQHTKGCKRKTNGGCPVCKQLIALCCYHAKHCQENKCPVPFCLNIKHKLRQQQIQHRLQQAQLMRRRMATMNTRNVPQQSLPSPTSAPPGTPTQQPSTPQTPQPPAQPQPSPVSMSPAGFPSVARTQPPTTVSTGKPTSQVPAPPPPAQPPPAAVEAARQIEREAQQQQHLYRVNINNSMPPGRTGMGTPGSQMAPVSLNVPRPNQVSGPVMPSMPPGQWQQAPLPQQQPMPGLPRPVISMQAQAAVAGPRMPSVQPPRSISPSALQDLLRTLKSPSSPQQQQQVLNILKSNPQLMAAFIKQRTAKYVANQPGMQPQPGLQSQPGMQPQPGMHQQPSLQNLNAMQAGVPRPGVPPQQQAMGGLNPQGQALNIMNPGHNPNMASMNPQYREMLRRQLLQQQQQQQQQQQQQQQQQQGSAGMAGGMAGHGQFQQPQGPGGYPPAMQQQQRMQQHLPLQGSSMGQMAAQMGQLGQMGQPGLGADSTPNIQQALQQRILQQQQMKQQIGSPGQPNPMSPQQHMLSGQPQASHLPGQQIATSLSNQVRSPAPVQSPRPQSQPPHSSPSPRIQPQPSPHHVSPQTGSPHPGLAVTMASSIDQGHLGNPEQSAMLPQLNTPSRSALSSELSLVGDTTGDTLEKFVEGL
# ASSAY NOTES: Competitive HTRF assay for affinity to CBP recombinant protein
# Assay type: binding
# CONDITION NOTES: His-tagged CBP 5 nM, biotin-labeled ligand 50 nM, 1% DMSO
Answers are plain numbers, as −log10 of the molar value.

{"COMPOUND": "CNC(=O)c1cc2ccccc2c(N2CCC(O)c3cc(-c4cnn(C)c4)ccc32)n1 (centres unmarked)", "TESTED ON": "CBP recombinant proteins (Homo sapiens (Human), UniProt Q92793)", "pIC50": 7.24}

Can you give me pIC50 for all of these, one by one?
1. CNC(=O)c1cc2ccc(C3CCOC3)cc2c(N2CCCc3cc(-c4cnn(C)c4)c(C(F)F)cc32)n1 (centres unmarked)
2. CNC(=O)c1cc2cc(C3=CCOC3)ccc2c(N2CCCc3cc(-c4cnn(C)c4)c(C(F)F)cc32)n1
3. CNC(=O)c1cc2ccccc2c(N2CCCc3cc(C4=CCOCC4)c(C(F)F)cc32)n1
4. CNC(=O)c1cc2c(c(N3CCCc4cc(-c5cnn(C)c5)c(C(F)F)cc43)n1)COC2
5. CNC(=O)c1cc2ccccc2c(N2CCCc3cc(-c4ccn(C)n4)c(C(F)F)cc32)n1
6. CNC(=O)c1cc2ncccc2c(N2CCCc3cc(C4CCN(C(C)=O)CC4)c(C(F)F)cc32)n1

8.16
7.66
7.31
6.54
7.49
7.51

----------
# TESTED ON: CBP recombinant proteins (Homo sapiens (Human))
# ASSAY NOTES: Competitive HTRF assay for affinity to CBP recombinant protein
# CONDITION NOTES: His-tagged CBP 5 nM, biotin-labeled ligand 50 nM, 1% DMSO
Entries whose IC50 is below 40 nM take Condition met; entries at or above 40 nM take Condition not met.

{"COMPOUND": "CNC(=O)c1cc2c(c(N3CCCc4cc(-c5cnn(C)c5)c(C(F)F)cc43)n1)CCC2 [Example 61]", "ASSIGNED LABEL": "Condition not met"}

I'd appreciate it if you could check whether CNC(=O)c1cc2ccc(N3CCOC3=O)cc2c(N2CCCc3cc(-c4cnn(C)c4)c(C(F)F)cc32)n1 [Example 24] has IC50 smaller than 40 nM.
Condition met

Hello, is IC50 of the following compound strictly smaller than 40 nM? CN(C)C(=O)c1cc2ccccc2c(N2CCCc3cc(-c4cnn(C)c4)c(C(F)F)cc32)n1 [Example 4]
Condition not met

Strictly below 40 nM in IC50? CNC(=O)c1cc2cc(C3CCOCC3)ccc2c(N2CCCc3cc(-c4cnn(C)c4)c(C(F)F)cc32)n1 [Example 21]
Condition met

Criterion: IC50 strictly below 40 nM. Is it met by CNC(=O)c1cc2ccc(C3CCOCC3)cc2c(N2CCCc3cc(-c4cnn(C)c4)c(C(F)F)cc32)n1 [Example 17] ?
Condition met

A record lists CNC(=O)c1cc2cc(C3CCOC3)ccc2c(N2CCCc3cc(-c4cnn(C)c4)c(C(F)F)cc32)n1 (stereo not shown) [Example 23] . Is its IC50 below 40 nM?
Condition met

Field: below-cutoff. Rule: recorded IC50 strictly less than 40 nM. Subject: CNC(=O)c1cc2cc(N3CCN(C)CC3=O)ccc2c(N2CCCc3cc(-c4cnn(C)c4)c(C(F)F)cc32)n1 [Example 27]
Condition met
